Molecular target: HsOPRT (Homo sapiens)
Construct: This HsUMPase truncation construct only expresses its HsOPRT domain; His6 (thrombin-cleavable) (N, cleaved yes); made in house; host or cells: E. coli BL21-AI
Sequence (P11172 1-245): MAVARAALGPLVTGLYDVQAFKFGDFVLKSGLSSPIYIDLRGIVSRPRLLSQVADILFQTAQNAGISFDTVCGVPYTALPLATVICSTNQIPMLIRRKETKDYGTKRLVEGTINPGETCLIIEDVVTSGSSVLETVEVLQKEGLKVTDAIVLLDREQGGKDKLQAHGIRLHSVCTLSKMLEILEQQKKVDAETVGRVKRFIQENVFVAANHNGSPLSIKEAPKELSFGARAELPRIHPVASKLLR
Experiment: HsOPRT kinetic and inhibition assay (OMP with PA or PPi)
Assay type: biochemical
measured-endpoint: pKi
# pKi: negative log10 of molar concentration; output just the value

What value of measured pKi is listed for O=[N+]([O-])c1ccc(O[C@@H]2O[C@H](COP(=O)(O)O)[C@@H](O)[C@H]2O)cc1 [p-nitrophenyl β-D-ribose 5′-phosphate] ?
7.39

====

Target: PfOPRT (Plasmodium falciparum)
Construct: His6 (thrombin-cleavable) (N, cleaved yes); made in house; host or cells: E. coli BL21-AI
Sequence (Q8I3Y0 1-281): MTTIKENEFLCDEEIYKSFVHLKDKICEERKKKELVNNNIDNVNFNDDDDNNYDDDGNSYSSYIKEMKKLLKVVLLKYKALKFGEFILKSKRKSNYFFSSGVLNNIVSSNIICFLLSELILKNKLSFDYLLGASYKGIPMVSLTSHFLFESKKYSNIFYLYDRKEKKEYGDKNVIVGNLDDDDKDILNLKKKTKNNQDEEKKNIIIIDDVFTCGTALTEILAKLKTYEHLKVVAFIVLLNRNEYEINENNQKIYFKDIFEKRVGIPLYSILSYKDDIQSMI
Experiment: PfOPRT kinetic and inhibition assay (OMP with PA or PPi)
Assay type: biochemical
measured-endpoint: Ki (nM)
Kindly provide the numeric value in nM only, without the unit symbol.

// map O=[N+]([O-])c1ccc(O[C@@H]2O[C@H](COP(=O)(O)O)[C@@H](O)[C@H]2O)cc1 [p-nitrophenyl β-D-ribose 5′-phosphate] to recorded Ki (system: PfOPRT (Plasmodium falciparum))
40
